Numbers sourced from paper PMC9253517.

Target: SARS-CoV-2 Wuhan-Hu-1 RBD (SARS-CoV-2, Wuhan-Hu-1 (GenBank …, UniProt P0DTC2))
Experiment: BLI
Details: both partners purified
endpoint: binding result

- binder: "JR081 (antibody, V domains shown) VH: QVQLVQSGAEVKKPGASVKVSCKASGYIFTAYYMHWVRQAPGQGLEWMGWINPMSGATNYAQRFQGRVTMTRVTMTRDTSITTAYMELSRLRSDDTAVYYCARVNHIVGVTSSDPVYGMDVWGQGTTVTVSS VL: QSALTQPASVSGSPGQSITISCTGTSSDVGGYKYVSWYQQHPGKAPKLMIYEVSNRPSGVSSRFSGSKSGYTASLTISGLQAEDEADYYCSSYTNSPTLFYVFGTGTKVTVL"
  endpoint: "binding result"
  measuredValue: "binds"
- binder: "JR042 (antibody, V domains shown) VH: EVQLVESGGGLIQPGGSLRLSCVASGVTVSSNYMSWVRQAPGKGLEWVSVIYPGGTTYYADSVKGRFTISRDNSKNTLYLQMTSLRAEDTAVYYCARGGDYHYGMDVWGQGTTVTVSS VL: DIQLTQSPSFLSASVGDRVTITCRASQGISSYLAWYQQKPGKAPKLLIYAASTLQSGVPSRFSGSGSGTEFTLTISSLQPEDFATYYCQLLNSYPPTFGQGTKLEIK"
  endpoint: "binding result"
  measuredValue: "binds"
- binder: "JR065 (antibody, V domains shown) VH: VQLVESGGGVAQPGRSLRLSCAASGFTFSHYGMHWVRQGPGKGLEWVAGISFDGSDKYYADSVKGRFTISRDNSKNTFYLQMNSLRTDDTAVFYCAKQGFGYGSGWYYFDYWGQGTLVTVSS VL: IRMTQSPSSLSASVGDRVTITCQASQDISKYLNWYQQRPGKAPKPLIYDASNLETGVPSRFSGSGSGTDFTLTITNLQPEDIATYYCQQYDNVPSVTFGQGTRLEIK"
  endpoint: "binding result"
  measuredValue: "binds"
